Where these numbers come from: the Immune Epitope Database (IEDB)

- tested system: HLA-A*80:01
- test description: IEDB peptide-MHC binding, purified MHC/direct/fluorescence; filed as Kd, often an IC50 or EC50 that approximates it; bounds were set here for any values at or beyond the usual limits of such assays
- applied conditions: source organism: West Nile virus
pKd: −log10 of the molar value.

residue codes: MSPHRVPNY
pKd: ≤ 4.70

* * *

- tested system: HLA-B*51:01
- test description: IEDB peptide-MHC binding, purified MHC/competitive/radioactivity; filed as Kd, often an IC50 or EC50 that approximates it; bounds were set here for any values at or beyond the usual limits of such assays
- applied conditions: source organism: Dengue virus 2 Jamaica/1409/1983
pKd: −log10 of the molar value.

residue codes: VAFLRFLTI
operator: =
pKd: 8.72
//
residue codes: SPCKIPFEI
operator: ≤
pKd: 4.32
//
residue codes: KPWDVVPMV
operator: =
pKd: 5.84
//
residue codes: VPTSRTTWSI
operator: =
pKd: 7.28
